Data credit: paper PMC6355468

- ASSAY_NOTES: Rat pharmacokinetic study of DZ2002
- Format: in vivo, Sprague-Dawley rats
- COND: both, Sprague-Dawley, rat, blood, po

| COMPOUND | bioavailability |
| --- | --- |
| COC(=O)[C@@H](O)CCn1cnc2c(N)ncnc21 [DZ2002] | 90 to 159% |

----------
- ASSAY_NOTES: Rat pharmacokinetic study of DZ2002
- Type: in vivo, Sprague-Dawley rats
- COND: male, Sprague-Dawley, rat, blood, po, 25 mg/kg

| COMPOUND | UOM | MRT |
| --- | --- | --- |
| COC(=O)[C@@H](O)CCn1cnc2c(N)ncnc21 | h | 1.2 |
| Nc1ncnc2c1ncn2CCC(O)C(=O)O (centres unmarked) | h | 1.6 |
